Hey, just so you know, these numbers are from PubChem BioAssay (NCI).

Parameter TGI: see the listing below.
- Test system: DU-145 prostate
- protocol.notes: NCI tumour cell line growth inhibition, 48 h
measured.property: TGI

molecule="O=C(O)CC(C(=O)O)c1ccccc1[N+](=O)[O-] (stereo unspecified)" target_or_system="DU-145 prostate" measured_property=TGI experimental_value="> 100 µM"
molecule=O=C(NN=C1CCN(Cc2ccccc2)CC1)C(O)(c1ccccc1)c1ccccc1 target_or_system="DU-145 prostate" measured_property=TGI experimental_value="> 100 µM"
molecule="COc1ccc(OC)c(C2CCc3nc4nc(N)nc(N)c4cc3C2)c1 (stereo unspecified)" target_or_system="DU-145 prostate" measured_property=TGI experimental_value="17.8 µM"
molecule=C=C[C@@H]1OC(=O)O[C@H]1CO target_or_system="DU-145 prostate" measured_property=TGI experimental_value="> 100 µM"
molecule=Cc1ccc(Nc2nc(NCCO)c3ccccc3n2)cc1C target_or_system="DU-145 prostate" measured_property=TGI experimental_value="22 µM"
molecule=O=c1c(O)c(-c2ccc(O)cc2O)oc2cc(O)cc(O)c12 target_or_system="DU-145 prostate" measured_property=TGI experimental_value="> 100 µM"
molecule="O=c1c2ccccc2nc2n1NC(c1c(Cl)cccc1Cl)N2c1cccc(Cl)c1 (stereo unspecified)" target_or_system="DU-145 prostate" measured_property=TGI experimental_value="> 100 µM"
molecule=O=C(c1ccccc1)c1ccc(C(c2c(O)c3ccccc3oc2=O)c2c(O)c3ccccc3oc2=O)cc1 target_or_system="DU-145 prostate" measured_property=TGI experimental_value="> 85.7 µM"
molecule=CCC/C(=N\NC(=S)N1CCN(c2ccccn2)CC1)c1ccccn1 target_or_system="DU-145 prostate" measured_property=TGI experimental_value="2.37 µM"
molecule=O=C1OC(c2ccco2)=N/C1=C\c1ccc(Cl)c(Cl)c1 target_or_system="DU-145 prostate" measured_property=TGI experimental_value="> 100 µM"
molecule=CC/C(=N\NC(=O)c1cccnc1)c1ccc2c(c1)OCCO2 target_or_system="DU-145 prostate" measured_property=TGI experimental_value="> 100 µM"

###

- Tested on: SNB-75 CNS
- protocol.notes: NCI tumour cell line growth inhibition, 48 h; in the data active = GI50 below about 0.43 µM; inactive = the rest
Possible outcomes: yes (active), no (inactive)

line_notation=CC(C)C[C@H](NC(=O)[C@H](Cc1ccccc1)n1ccc(N2CCCCC2)cc1=O)B(O)O cat=no
line_notation=O=[N+]([O-])c1cnc(Sc2ccncn2)c([N+](=O)[O-])c1 cat=no
line_notation=COc1ccc(C(=O)Cn2c(C(=O)c3ccc(OC)cc3)nc3ccccc32)cc1 cat=no
line_notation=CC1=C(C)C(=O)c2c(c(C(=O)c3ccccc3)c3nc4ccccc4n3c2C)C1=O cat=no
line_notation=CN(C)CCNC(=O)c1ccc(Nc2nc3ccccc3c3occc23)cc1 cat=no
line_notation=CC/C=C\C[C@H](O)C/C=C1/C(=O)C=C[C@@H]1C/C=C\CCCC(=O)NC(C)C cat=no
line_notation=O=C(/C=C/c1ccco1)c1ccc(Nc2nc(Nc3ccc(F)cc3)nc(Nc3ccc(Cl)cc3)n2)cc1 cat=no
line_notation=COc1ccc(CN2C(=O)/C(=C\c3cc(OC)c(OC)c(OC)c3)c3cc(OC)ccc32)cc1 cat=no
line_notation=O=[N+]([O-])c1ccc(N2CCN(Cc3ccccc3)CC2)c2c1no[n+]2[O-] cat=no
line_notation=CCNC(=O)C[C@@H]1N=C(c2ccc(Cl)cc2)c2cc(OC)ccc2-n2c(C)nnc21 cat=yes
line_notation=O=C(Nc1ccc(Cl)c([N+](=O)[O-])c1)Nc1nc2ccccc2s1 cat=no

###

Parameter TGI: see the listing below.
- Tested on: A549 NSCLC
- protocol.notes: NCI tumour cell line growth inhibition, 48 h
measured.property: TGI

molecule=COC(=O)c1c[nH]cc1CCc1c[nH]cc1C(=O)OC target_or_system="A549 NSCLC" experimental_value="> 100 µM"
molecule=Oc1ccc(C(c2ccccc2)(c2ccccc2)c2ccccc2)cc1 target_or_system="A549 NSCLC" experimental_value="29 µM"
molecule=C[C@]12CC[C@@H]3c4ccc(O)cc4CC[C@H]3[C@@H]1C/C(=C\c1ccc([N+](=O)[O-])cc1)C2=O target_or_system="A549 NSCLC" experimental_value="> 100 µM"
molecule="Cc1ccc(C)c(NC(=O)C(=O)C(c2cnc3ccc([N+](=O)[O-])cc3n2)[N+](=O)[O-])c1 (centres undefined)" target_or_system="A549 NSCLC" experimental_value="> 100 µM"
molecule=CN(C)CCCNc1c(O)c2c(c(O)c1Cl)C(=O)C=CC2=O target_or_system="A549 NSCLC" experimental_value="3.52 µM"
molecule=COc1nc2c(OC)cccc2c(OC)c1C=O target_or_system="A549 NSCLC" experimental_value="> 100 µM"
molecule=COc1ccc2[nH]c(CCNC(=O)c3cc([N+](=O)[O-])cc([N+](=O)[O-])c3)cc2c1 target_or_system="A549 NSCLC" experimental_value="> 100 µM"
molecule="NC(N)=NCCCC(N=c1c2ccccc2n(O)c2ccccc12)C(=O)O (centres undefined)" target_or_system="A549 NSCLC" experimental_value="> 100 µM"
molecule=O=c1c(O)c(-c2ccc(O)cc2O)oc2cc(O)cc(O)c12 target_or_system="A549 NSCLC" experimental_value="> 100 µM"
molecule=CC(C)C[C@@H](NC(=O)[C@@H](Cc1ccccc1)NC(=O)c1cnccn1)B1O[C@H]2[C@H](O)[C@@H](C(=O)NCCCC[C@@H]3NC(=O)[C@@H](Cc4ccccc4)NC(=O)[C@H](CC(=O)O)NC(=O)CNC(=O)[C@H](CCCN=C(N)N)NC3=O)O[C@@H](CN)[C@H]2O1 target_or_system="A549 NSCLC" experimental_value="0.658 µM"
molecule=COc1c2c(c(OC)c3c1c(=O)c1ccccc1n3C)OCO2 target_or_system="A549 NSCLC" experimental_value="> 100 µM"
molecule="Cc1ccc(S(=O)(=O)N/N=C(\\CCN2CCCC2)CC(c2ccccc2)c2c(O)c3ccccc3oc2=O)cc1 (centres undefined)" target_or_system="A549 NSCLC" experimental_value="> 100 µM"
molecule=Cc1ccc(Nc2nc(NCCO)c3ccccc3n2)cc1C target_or_system="A549 NSCLC" experimental_value="22.7 µM"
molecule=C=C1C(=O)O[C@H]2[C@H]1CC/C(COC(=O)C(=O)c1c[nH]c3ccccc13)=C\CC[C@@]1(C)O[C@@H]21 target_or_system="A549 NSCLC" experimental_value="6.08 µM"
molecule=CC(=O)ON(OC(C)=O)c1ccc(C)cc1 target_or_system="A549 NSCLC" experimental_value="> 100 µM"
molecule=CN/N=C(/Cc1occc(=O)c1O)C(=O)Nc1ccc(C)c(C)c1 target_or_system="A549 NSCLC" experimental_value="> 100 µM"
molecule=O=C(NN=C1CCN(Cc2ccccc2)CC1)C(O)(c1ccccc1)c1ccccc1 target_or_system="A549 NSCLC" experimental_value="> 100 µM"
molecule="CC1C(c2ccc(F)cc2)c2cc3c(cc2OC1N1CCCC1)OCO3 (centres undefined)" target_or_system="A549 NSCLC" experimental_value="> 100 µM"
molecule=CCCCCCCCCCCCCS(=O)(=O)O target_or_system="A549 NSCLC" experimental_value="> 100 µM"

###

- System: SN12C renal
- protocol.notes: NCI tumour cell line growth inhibition, 48 h; in the data active = GI50 below about 0.43 µM; inactive = the rest
Possible outcomes: Yes for active, No for inactive

compound=Oc1c(CN2CCC(N3CCOCC3)CC2)cc(Cc2cc(CN3CCC(N4CCOCC4)CC3)c(O)c3ncccc23)c2cccnc12 target_or_system="SN12C renal" cat=No
compound="COC(=O)/C=C/c1cc(O)c2c(c1)C(C(=O)OC)C(c1ccc(O)c(O)c1)O2 (centres undefined)" target_or_system="SN12C renal" cat=No
compound=O=C(Nc1ccc(-c2nc3cc4ccccc4cc3[nH]2)cc1)c1cccc(Br)c1 target_or_system="SN12C renal" cat=No
compound=CCC/C(=N\NC(=S)N1CCN(c2ccccn2)CC1)c1ccccn1 target_or_system="SN12C renal" cat=Yes
compound=CN(C)/[N+]([O-])=N/Oc1cc(Nc2cccc(C(=O)O)c2)c([N+](=O)[O-])cc1[N+](=O)[O-] target_or_system="SN12C renal" cat=No
compound="COc1ccc(-c2ccc(C3CC(c4ccc(O)cc4)=NN3)o2)c([N+](=O)[O-])c1 (centres undefined)" target_or_system="SN12C renal" cat=No
compound=Cn1c(C(N)=O)cc2c1-c1nc(Nc3ccccc3)ncc1CCC2 target_or_system="SN12C renal" cat=No
compound=O=C(/C=C/c1ccco1)c1ccc(Nc2nc(Nc3ccc(F)cc3)nc(Nc3ccc(Cl)cc3)n2)cc1 target_or_system="SN12C renal" cat=No
compound=COc1cccc(-c2nn(-c3ccccc3)cc2-c2ccnc(NCCNS(=O)(=O)c3ccc(Cl)cc3)c2)c1 target_or_system="SN12C renal" cat=No
